Values from ChEMBL document CHEMBL3232987

Consider the following compounds and their measured MIC readings.
- System: Staphylococcus aureus
- ASSAY: Antibacterial activity against gentamicin-resistant Staphylococcus aureus ATCC 33592 by NCCLS two-fold dilution method
- Format: functional
MEASUREMENT_NAME: MIC

compound="CC(C)(C)n1nnnc1C(c1ccncc1)N1CCN(c2cc3c(cc2F)c(=O)c(C(=O)O)cn3Cc2ccc(C(F)(F)F)cc2)CC1 (configuration not stated)" measurement_name=MIC reported_result="50 µg/mL"
compound=O=C(O)c1cn(C2CC2)c2cc(N3CCNCC3)c(F)cc2c1=O measurement_name=MIC reported_result="0.19 µg/mL"
compound="CCn1cc(C(=O)O)c(=O)c2cc(F)c(N3CCN(C(c4ccncc4)c4nnnn4C(C)(C)C)CC3)cc21 (configuration not stated)" measurement_name=MIC reported_result="1.56 µg/mL"
compound="CCn1cc(C(=O)O)c(=O)c2cc(F)c(N3CCN(C(c4ccc(OC)c(OC)c4OC)c4nnnn4C(C)(C)C)CC3)cc21 (configuration not stated)" measurement_name=MIC reported_result="3.12 µg/mL"
compound="CCn1cc(C(=O)O)c(=O)c2cc(F)c(N3CCN(C(c4ccncc4)c4nnnn4C4CCCCC4)CC3)cc21 (configuration not stated)" measurement_name=MIC reported_result="3.12 µg/mL"
compound="O=C(O)c1cn(Cc2ccc(C(F)(F)F)cc2)c2cc(N3CCN(C(c4cccc5ccccc45)c4nnnn4C4CCCCC4)CC3)c(F)cc2c1=O (configuration not stated)" measurement_name=MIC reported_result="> 50 µg/mL"
compound="CCn1cc(C(=O)O)c(=O)c2cc(F)c(N3CCN(C(c4ccc(OC)c5ccccc45)c4nnnn4C4CCCCC4)CC3)cc21 (configuration not stated)" measurement_name=MIC reported_result="6.25 µg/mL"
